- ASSAY EXPLANATION: gradient 5% acetonitrile 3 min, to 50% in 2 min, to 85% in 15 min, held 3 min, 100 µL/min
- CONDITION DETAILS: column: Zorbax Extend-C18 2.1 x 50 mm; eluents: water / acetonitrile, 0.1% formic acid
MEASURED PARAMETER: RP-LC retention time (s)

Consider the worked cases shown below.
CCOc1ccc(NS(=O)(=O)c2cc(C(=O)N3CCN(c4ccccc4)CC3)n[nH]2)cc1 | 883
Cc1ccc(NC(=O)NCCCn2c(C(F)(F)F)nc3cccnc32)cc1F | 866
CCCN1CCN(C(=O)c2nc(N3CCCCC3)c3c(C)cc(C)nc3n2)CC1 | 566
CCc1sc(NC(=O)CS(=O)(=O)c2ccc(C)cc2)nc1-c1ccccc1 | 1040
Cc1ccc(CCNC(=O)C2CCN(S(=O)(=O)c3ccc4c(c3)CCCC(=O)N4)CC2)cc1 | 781
CCOc1ccccc1NC(=O)N1CC(n2ccnc2)C1 | 594
COCc1nc(C2CCN(C(=O)NCC(C)C)C2)no1 (configuration not stated) | 636
CCOc1cc(=O)c(C(=O)N2CCC(C(N)=O)CC2)nn1-c1ccc(C)cc1 | 610
CC(C)n1cnc(S(=O)(=O)N2CCC(C(=O)N3CCN(c4ccccc4F)CC3)CC2)c1 | 807
Cc1ccc(-c2noc(CN3N=NC4C(=O)N(c5ccc(C)c(C)c5)C(=O)C43)n2)cc1 (configuration not stated) | 1110

(P) CCc1cc(=O)n(CC(=O)Nc2ccc(N(C)C)cc2)c(N2CCOCC2)n1
(Q) Cc1c(F)cccc1NC(=O)Nc1ccc(Nc2cc(-n3cccn3)ncn2)cc1
*Q* Higher RP-LC retention time between P and Q ? Lab note: record the label of whichever item you select.
*A* Q

(a) Cc1ccc(Nc2c(-c3ccc(N4CCOCC4)cc3)nc3cccc(C)n23)cc1
(b) Cc1ccc(-c2ccnc3c(C(=O)NCCc4c[nH]c5ccccc45)cnn23)cc1C
*Q* Please choose the item with the lower RP-LC retention time value from this pair: a and b Selection: enter the item's label.
*A* a

(A) CC(C)CC(=O)N(C)CCc1noc(-c2ccc(C(=O)N3CCOCC3)cc2)n1
(B) O=C(Cn1nc(N2CCCCCC2)c2ccccc2c1=O)Nc1ccc(Cl)cc1
*Q* Pick one, A or B : lowest reported RP-LC retention time. Please identify the chosen entry by its label.
*A* A
